- tgt: rat CB2 receptor (rCB2) (Rattus norvegicus)
- Sequence (Q9QZN9 1-360): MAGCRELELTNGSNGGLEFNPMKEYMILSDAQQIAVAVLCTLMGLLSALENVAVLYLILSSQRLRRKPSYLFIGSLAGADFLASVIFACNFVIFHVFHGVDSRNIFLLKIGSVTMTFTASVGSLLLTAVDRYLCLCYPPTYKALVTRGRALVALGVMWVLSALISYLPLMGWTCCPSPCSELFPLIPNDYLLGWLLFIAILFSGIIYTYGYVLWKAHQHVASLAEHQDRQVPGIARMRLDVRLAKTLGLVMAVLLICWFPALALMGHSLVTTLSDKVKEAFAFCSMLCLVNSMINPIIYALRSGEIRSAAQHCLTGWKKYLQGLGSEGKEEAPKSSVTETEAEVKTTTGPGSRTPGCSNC
- experiment notes: cell-based
- Type: cell-based
- measurement conditions: agonist or inverse agonist at rCB2
quantity kind: +/− RCB2

>  <molecule>
CNC(=O)[C@@H](NC(=O)c1nc(/C=C/CN2CCCCC2)n2c1CN(C)CC2)C(C)(C)C [Compound 287]

>  <assay value>
+

$$$$
>  <molecule>
CNC(=O)[C@@H](NC(=O)c1nc(CC(C)C)n2c1CN(C)CCC2)C(C)(C)C [Compound 486]

>  <assay value>
+

$$$$
>  <molecule>
CNC(=O)[C@@H](NC(=O)c1nc(-c2cccc(C(F)(F)F)c2F)n2c1CN(C)CCC2)C(C)(C)C [Compound 364]

>  <assay value>
−

$$$$
>  <molecule>
CC(C)(C)[C@@H](CO)NC(=O)c1nc(-c2ccccc2)n2c1CN(S(=O)(=O)c1ccc(F)cc1)CC2 [Compound 101]

>  <assay value>
−

$$$$
>  <molecule>
CC(C)CN1CCn2c(-c3ccccc3)nc(C(=O)N[C@H](C)C(C)(C)C)c2C1 [Compound 52]

>  <assay value>
−

$$$$

Please report the recorded +/− RCB2 for CC(C)CN1CCn2c(-c3ccccc3)nc(C(=O)N3CCOCC3)c2C1 [Compound 70] . −

Quick one: CNC(=O)[C@@H](NC(=O)c1nc(-c2ccccc2)n2c1CN(S(=O)(=O)CC(C)C)CC2)C(C)(C)C [Compound 95] −

Quick one: C/C=C/c1nc(C(=O)N[C@H](C(=O)NC)C(C)(C)C)c2n1CCN(C)C2 [Compound 243] +

Values were extracted from patent US7517874B2.
